# Test system: SW 982 tumor spheroid viability
# Protocol: Anticancer human tumor SW 982 cell line growth inhibition; active = viability on the fitted dose curve at most 10% of control; inactive = the rest;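 also: spheroids exposed to compound for 7 days before readout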
# Experimental Parameters: second compound 0.003 µM; first compound 0.0949 µM; spheroids with HUVEC and MSC
Reply using exactly one outcome from t (active), f (inactive)

Examples from the recorded data:
Molecule: Cc1sc2c(c1C)C(c1ccc(Cl)cc1)=NC(CC(=O)Nc1ccc(O)cc1)c1nnc(C)n1-2 (stereo not drawn) + COc1cc2c(cc1O)CCNC21CSC2c3c(OC(C)=O)c(C)c4c(c3C(COC1=O)N1C(O)C3Cc5cc(C)c(OC)c(O)c5C(C21)N3C)OCO4
Assigned Label: t

Molecule: CNCc1ccc(-c2cc(-c3nc(-c4ccc(S(=O)(=O)C(C)C)cc4)cnc3N)on2)cc1 + CC[C@@]1(O)C(=O)OCc2c1cc1n(c2=O)Cc2cc3c(CN(C)C)c(O)ccc3nc2-1
Assigned Label: f

Now for a further molecule.
How was O=C(c1cc(Cc2n[nH]c(=O)c3ccccc23)ccc1F)N1CCN(C(=O)C2CC2)CC1 + CC[C@@]1(O)C(=O)OCc2c1cc1n(c2=O)Cc2cc3c(CN(C)C)c(O)ccc3nc2-1 classified in this test?
f
